- Test system: DLD-1
- procedure.details: NCI tumour cell line growth inhibition, 48 h
Activity calls are given as the source filed them. Cut-off read from the data, not from the text of the source: active = GI50 up to about 1.1 µM and inactive = higher.
Use one of these outcomes when replying: active, inactive

Before answering, review these 3 worked examples.
{"compound": "CC12CC3CC(C)(C1)CC(N=[N+]=[N-])(C3)C2", "assayed.system": "DLD-1", "category.label": "inactive"}
{"compound": "CCC1(O)CC(c2ccccc2)N(C)C(c2ccccc2)C1 (stereo not given)", "assayed.system": "DLD-1", "category.label": "inactive"}
{"compound": "NNC(=O)C(=O)N/N=C(\\CCCC(=O)Nc1ccc(Cl)cc1)CC(=O)c1ccc(F)cc1", "assayed.system": "DLD-1", "category.label": "inactive"}

**Q:** Dear all, I need the recorded test outcome for CCOC1CC2OC(=O)C1C=C2C(=O)OC (stereo not given) , thank you.
**A:** inactive

**Q:** Dear all, I need the recorded test outcome for O=c1[nH]c(=O)n(C2CC(O)C(CS)O2)cc1F (stereo not given) , thank you.
**A:** inactive

**Q:** Dear all, I need the recorded test outcome for CCc1cccc(C(C)CC)c1NC(=O)CC1C(=O)Nc2ccccc2S1(=O)=O (stereo not given) , thank you.
**A:** inactive

**Q:** Dear all, I need the recorded test outcome for O=[N+]([O-])c1cc(/C=N\NS(=O)(=O)c2ccc(Cl)cc2)c(O)c([N+](=O)[O-])c1 , thank you.
**A:** inactive

**Q:** Dear all, I need the recorded test outcome for CC1(C)Cc2cc(C(=O)O)c3c(c2C1=O)COCC3 , thank you.
**A:** inactive

----------
- System: HT-29
- procedure.details: NCI tumour cell line growth inhibition, 48 h
Activity calls are given as the source filed them. Rule as the data show it: active = GI50 up to about 1.1 µM and inactive = higher.
assay.readout: GI50

{"molecule": "COc1cc(C(=O)Oc2c(C#N)sc3c2c(=O)n(-c2ccccc2)c(=S)n3-c2ccccc2)cc(OC)c1OC", "GI50": "3.4 µM (inactive)"}

// below: GI50 requested for another molecule
Note to self: GI50 recorded for O=C(c1ccncc1)n1nc(-c2ccccc2)c(/N=N/c2ccc([N+](=O)[O-])cc2)c1-c1ccccc1 was 38.7 µM (inactive)

----------
Each entry below carries its recorded GI50.
- System: NCI-H226
- procedure.details: NCI tumour cell line growth inhibition, 48 h
Active and inactive are the calls of the source. No stated cut-off is given here; in the data, active = GI50 up to about 1.1 µM and inactive = higher.

Consider the following illustrative entries.
{"compound": "CCCCOCCOCCOC1=C(Cl)C(=O)c2c(O)ccc(O)c2C1=O", "assayed.system": "NCI-H226", "GI50": "1.79 µM (inactive)"}
{"compound": "O=C(NC1CCCCCC1)C1C(=O)N(C2CCCCCC2)C(=O)/C1=N\\O (configuration not stated)", "assayed.system": "NCI-H226", "GI50": "35.6 µM (inactive)"}
{"compound": "CCN1C(=O)/C(=C\\Nc2ccccc2)S/C1=N/Nc1ncc(CC(=O)Nc2ccccc2C)s1", "assayed.system": "NCI-H226", "GI50": "11.2 µM (inactive)"}
{"compound": "CC(C)(C)C1=C(Br)C(F)(C(C)(C)C)OP1(=O)c1ccccc1 (configuration not stated)", "assayed.system": "NCI-H226", "GI50": "15.1 µM (inactive)"}

Note to self: GI50 recorded for CN(C)CC1CCCC(CN(C)C)C1OC(=O)c1ccccc1 (configuration not stated) was > 100 µM (inactive)

Note to self: GI50 recorded for CC1=NCCN=C(C)C1/N=N/c1ccc2[nH]c(C)nc2c1 was 20.3 µM (inactive)

// provenance: ChEMBL document CHEMBL1201862
